Where do these numbers come from? They come from patent US20210070881A1.

As shown below, each of these binders has a reported kon value.
target: T1, recombinant BACE1 (BACE1 extracellular domain, R&D Systems Cat#931-AS) (UniProt P56817 22-457); assay: SPR Biacore
T1 construct: extracellular domain; also called BACE1 extracellular domain protein
T1 sequence (P56817 22-457): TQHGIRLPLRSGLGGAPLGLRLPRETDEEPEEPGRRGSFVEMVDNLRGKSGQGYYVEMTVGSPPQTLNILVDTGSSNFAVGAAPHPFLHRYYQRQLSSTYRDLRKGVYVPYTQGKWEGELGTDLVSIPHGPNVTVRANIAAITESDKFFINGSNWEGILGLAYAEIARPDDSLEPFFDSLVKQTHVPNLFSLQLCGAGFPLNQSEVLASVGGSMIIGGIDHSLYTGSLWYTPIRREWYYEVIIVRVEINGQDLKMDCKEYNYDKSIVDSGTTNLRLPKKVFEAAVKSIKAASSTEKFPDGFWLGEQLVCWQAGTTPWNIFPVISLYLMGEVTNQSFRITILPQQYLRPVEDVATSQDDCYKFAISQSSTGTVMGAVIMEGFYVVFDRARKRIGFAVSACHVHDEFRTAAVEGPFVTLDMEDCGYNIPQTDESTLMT
Output spec: scalar in M⁻¹ s⁻¹, unitless text.

>>> recordedvalue("2H8.41 (antibody, human IgG1, V domains shown, human IgG1/kappa; also called 2H8_HCvar5 + 2H8_LCvar7) VH: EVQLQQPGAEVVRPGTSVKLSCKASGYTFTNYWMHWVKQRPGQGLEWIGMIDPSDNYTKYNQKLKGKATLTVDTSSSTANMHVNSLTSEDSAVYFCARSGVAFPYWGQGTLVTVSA VL: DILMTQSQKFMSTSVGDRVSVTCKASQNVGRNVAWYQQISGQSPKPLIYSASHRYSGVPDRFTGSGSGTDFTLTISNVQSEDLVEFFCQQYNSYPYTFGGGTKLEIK")
18500
>>> recordedvalue("2H8.12 (antibody, human IgG1, V domains shown, human IgG1/kappa; also called 2H8_HCvar6 + 2H8_LCvar2) VH: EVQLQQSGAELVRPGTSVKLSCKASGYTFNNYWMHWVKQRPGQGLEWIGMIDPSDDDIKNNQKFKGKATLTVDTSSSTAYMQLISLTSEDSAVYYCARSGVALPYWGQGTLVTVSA VL: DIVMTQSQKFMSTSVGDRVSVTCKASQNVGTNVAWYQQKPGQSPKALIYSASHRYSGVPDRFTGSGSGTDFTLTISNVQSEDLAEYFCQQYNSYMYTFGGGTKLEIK")
9680

Here is another binder to look at.
response.value for 2H8.23 (antibody, human IgG1, V domains shown, human IgG1/kappa; also called 2H8_HCvar5 + 2H8_LCvar4) VH: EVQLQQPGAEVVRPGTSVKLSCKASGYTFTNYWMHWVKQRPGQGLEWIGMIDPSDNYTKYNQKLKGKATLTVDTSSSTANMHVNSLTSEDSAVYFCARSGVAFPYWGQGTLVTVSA VL: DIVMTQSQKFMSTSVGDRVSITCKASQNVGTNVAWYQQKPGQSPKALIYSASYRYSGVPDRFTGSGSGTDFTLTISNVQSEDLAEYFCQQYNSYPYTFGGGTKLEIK (field: kon) = 12700
